Listed next: entries and their corresponding INHIBITION.
System: Plasmodium berghei
Test: Screen against P. berghei liver stage (PbLuc), transformed with Luciferase, at 10uM
Type: functional, HepG2
Conditions: tested at 10 uM
The campaign covered roughly 69,000 compounds. About 8,600 (12%) showed an effect of 50% or more. The entries come from a sample that favours strong results as a whole.
The answer is to be given in %; state only the numeric part.

Look over these answered cases.
>>> reported_result("Cc1nc(C)n(Cc2cccc(NC(=O)NC(C)(CO)C3CC3)c2)n1 (configuration not stated)")
47.4
>>> reported_result("COCCN1CC[C@@H](O)[C@@H]1Cc1ccccc1")
6.32
>>> reported_result("COc1cc(N2CC[C@@H](OC)[C@@H]2Cc2cnn(C)c2)ncn1")
23.5
>>> reported_result("CC(=O)Nc1cccc(Cn2nc(C)nc2C)c1")
39.7
>>> reported_result("COc1cc(N2CC[C@@H](O)[C@@H]2Cc2cccnc2)ncn1")
85.8
>>> reported_result("CS(=O)(=O)N1CCCC(Cc2ccnc(Nc3ccccn3)c2)C1 (configuration not stated)")
12.7

Give the value of INHIBITION reported for the following: "COCCN1CC[C@H](O)[C@@H]1Cc1ccccc1"
0.79

Give the value of INHIBITION reported for the following: "COc1cc(N2CC[C@@H](O)[C@@H]2Cc2ccncc2)ncn1"
43.9

Give the value of INHIBITION reported for the following: Cc1cc(C)c(NC(=O)Nc2cnn(CC(O)CN(C)C)c2)c(C)c1 (configuration not stated)
35.4

Give the value of INHIBITION reported for the following: Cn1ccnc1C(=O)N1CCCC(Cn2cc(CO)nn2)C1 (configuration not stated)
47.6

Give the value of INHIBITION reported for the following: O=C(NCCC1CCN(CC(F)(F)F)CC1)C1CCOC1 (configuration not stated)
26.1

Give the value of INHIBITION reported for the following: "O=C(Cc1cccnc1)N1CCC(c2nnc(-c3ccccn3)o2)CC1"
1.5235

* * *

System: Plasmodium berghei
Test: Screen against P. berghei liver stage (PbLuc), transformed with Luciferase, at 10uM
Type: functional, HepG2
Conditions: tested at 10 uM
Screen size: about 69,000 compounds; about 8,600 (12%) showed an effect of 50% or more. Many of the other results were omitted from the sample, so strong results are more common in it than they were.
Lab note: compare INHIBITION against 20%. Equal or greater, write class 1. Smaller, write class 0.

>>> class_name("CN(C)S(=O)(=O)N1C[C@H]2CC[C@@H](C1)N(Cc1ccc3c(c1)OCCO3)C2")
"class 1"
>>> class_name("O=C(O)c1ccccc1CN1CCCC(Cc2ccn[nH]2)C1 (stereo not given)")
"class 0"
>>> class_name("COc1ccc(CN2C[C@H]3CN(Cc4ccncc4)C(=O)[C@H]3C2)cc1")
"class 1"
>>> class_name("O=C(O)c1ccc(C2CCCN(C(=O)c3ccc[nH]3)C2)cc1 (stereo not given)")
"class 1"

Is INHIBITION for CCN(Cc1ccc(C)o1)C(=O)C(C)n1ccnc1C(C)C (stereo not given) at or above 20%?
class 0

* * *

System: Plasmodium berghei
Assay: Screen against P. berghei liver stage (PbLuc), transformed with Luciferase, at 10uM
Format: functional, HepG2
Details: tested at 10 uM
The whole screen tested about 69,000 compounds, of which about 8,600 (12%) showed an effect of 50% or more. What follows is part of a selection rich in strong results, with near analogues and random picks from the rest.
Listed next: entries and their corresponding INHIBITION.
The answer is to be given in %; state only the numeric part.

Look over these answered cases.
>>> reported_result("O=C(c1ccsc1)N1CCO[C@@H]2CN(Cc3ccco3)CC[C@@H]2C1")
44.8
>>> reported_result("CC/C(C)=C/CCN1CCN(C)C2(CCNC(=O)CC2)C1 (stereo not given)")
35.9
>>> reported_result("c1cnc(N2CCCC(Cc3nccs3)C2)nc1 (stereo not given)")
11.685
>>> reported_result("CN(C)Cc1cn(CC2CCCN(c3nccc4occc34)C2)nn1 (stereo not given)")
34.9
>>> reported_result("CCS(=O)(=O)c1ccc(N2CCC(NC(=O)C3CCCCC3)CC2)cc1")
37.7

Give the value of INHIBITION reported for the following: CC(=O)N1CCCC1c1nnn2cc(-c3ccncc3)ccc12 (stereo not given)
61.9

* * *

System: Plasmodium berghei
Assay: Screen against P. berghei liver stage (PbLuc), transformed with Luciferase, at 10uM
Assay type: functional, HepG2
Conditions: tested at 10 uM
Screen size: about 69,000 compounds; about 8,600 (12%) showed an effect of 50% or more. Shown is part of a subset that was picked to be rich in strong results.
Listed next: entries and their corresponding INHIBITION.
The answer is to be given in %; state only the numeric part.

Look over these answered cases.
>>> reported_result("Cc1cc(N2CCOC(c3ccccn3)C2)nc(N)n1 (stereo unspecified)")
2.6925
>>> reported_result("COCCCN(CCOC)Cc1nc2c(cnn2C)c(=O)[nH]1")
25.1

Give the value of INHIBITION reported for the following: "Cc1ccc(-c2nnc(CNCCn3cccn3)o2)cc1"
37.9

Give the value of INHIBITION reported for the following: NC(=O)c1ccc(C(=O)N2CCCC(n3ccnc3)C2)s1 (stereo unspecified)
23.4

Give the value of INHIBITION reported for the following: "CC(=O)N1CCOC2(CCN(C(=O)C3CC3)CC2)C1"
85.6

Give the value of INHIBITION reported for the following: COc1c(C2CC(=O)Nc3[nH]ncc32)cc2c(c1OC)OCO2 (stereo unspecified)
7.38

* * *

Test system: Plasmodium berghei
Assay: Screen against P. berghei liver stage (PbLuc), transformed with Luciferase, at 10uM
Format: functional, HepG2
Details: tested at 10 uM
About 8,600 (12%) of roughly 69,000 compounds showed an effect of 50% or more. Shown is part of a subset that was picked to be rich in strong results.
Lab note: compare INHIBITION against 20%. Equal or greater, write true. Smaller, write false.

Examples from the recorded data:
>>> class_name("Cc1ccc(CN2Cc3nccn3CC(CN(C)C)C2)s1 (stereo unspecified)")
"true"
>>> class_name("c1cnc2[nH]c(C3CCCC3)c(CN3CCOCC3)c2c1")
"true"
>>> class_name("c1cnc2[nH]c(C3CCCC3)c(CN3CCCCC3)c2c1")
"false"
>>> class_name("Cc1ccc(C)c(C(C)NC(=O)N2CCC(n3cncn3)CC2)c1 (stereo unspecified)")
"false"
>>> class_name("Cc1[nH]ccc1C(=O)N1CCN(C)C2(CCC(=O)N(C)CC2)C1 (stereo unspecified)")
"false"
>>> class_name("O=C(Nc1cc(-c2ccccc2)on1)N1CCN(CCO)CC1")
"true"
>>> class_name("O=C(Nc1cc(-c2ccccc2)on1)N1CC[C@H](O)C1")
"false"
>>> class_name("Cc1cnc2[nH]c(C(F)(F)F)c(CN3CCSCC3)c2c1")
"true"

Is INHIBITION for "Cc1cnc2[nH]c(C(F)(F)F)c(CN3CCOCC3)c2c1" at or above 20%?
false

Is INHIBITION for "COCCN1C[C@H]2[C@@H](C1)N(Cc1cnn(C)c1)CC[C@H]2OC" at or above 20%?
false

* * *

Listed next: entries and their corresponding INHIBITION.
Tested on: Plasmodium berghei
Assay: Screen against P. berghei liver stage (PbLuc), transformed with Luciferase, at 10uM
Assay type: functional, HepG2
Conditions: tested at 10 uM
The campaign covered roughly 69,000 compounds. About 8,600 (12%) showed an effect of 50% or more. For the sample, strong results were picked, then their nearest neighbours and some compounds at random.

>>> reported_result("CN1N=C(C(=O)N(Cc2ccco2)C2CCCC2)CCC1=O")
"46.1%"

Give the value of INHIBITION reported for the following: COCCN1CCC(CNC(=O)C2(c3cccc(Cl)c3)CC2)C1 (configuration not stated)
30.6%

Give the value of INHIBITION reported for the following: Cc1cnn(CC2CCCCN2C(=O)c2csc(C)n2)c1 (configuration not stated)
23.5%

Give the value of INHIBITION reported for the following: Cc1n[nH]cc1C(=O)N1CCCC(c2cccc(-n3ccnc3)n2)C1 (configuration not stated)
-13.7%

Give the value of INHIBITION reported for the following: Cc1cc(C(=O)N2CCCC(C)C2)ccc1NCC(=O)N1CCOCC1 (configuration not stated)
-47.6%

Give the value of INHIBITION reported for the following: "O=C(CC1CC1)N[C@@H]1CN(Cc2nccs2)C[C@@H]2CCCO[C@@H]21"
29%

Give the value of INHIBITION reported for the following: "CCCN1C[C@@H]2CC[C@H]1CN(Cc1ccc(-n3cccn3)cc1)C2"
49.5%

Give the value of INHIBITION reported for the following: "CNC(=O)[C@@]12CCC3(CCN(C(=O)COC)CC3)[C@@H]1CN(S(C)(=O)=O)C2"
-16.2%

Give the value of INHIBITION reported for the following: "CNc1ncc(CN(C)C(=O)c2cccc(CC3CCNCC3)c2)cn1"
19.1%

Give the value of INHIBITION reported for the following: O=c1cccnn1CC1CN(c2ncc(F)cn2)Cc2nccn2C1 (configuration not stated)
-3.33%

Give the value of INHIBITION reported for the following: "Cc1noc(-c2ccc(N(C)Cc3nccs3)nc2)n1"
1.79%

Give the value of INHIBITION reported for the following: "CN(C)[C@H]1COC[C@@H]2CN(Cc3ccc4c(c3)OCO4)C[C@@H]21"
12.1%

Give the value of INHIBITION reported for the following: "Cc1noc(-c2ccc(N(C)Cc3cccnc3)nc2)n1"
28.7%

Give the value of INHIBITION reported for the following: "COc1c(NS(=O)(=O)c2ccc(C)c(C)c2)c(C)nn1C"
51.1%

Give the value of INHIBITION reported for the following: "COc1cccc(OC)c1-c1c[nH]c(C)n1"
1.56%

Give the value of INHIBITION reported for the following: "CNC(=O)c1cnc2n1CCN(Cc1cccnc1)C2"
49.1%

Give the value of INHIBITION reported for the following: CCN(CC1COc2ccccc2O1)C(=O)NCCCn1cncn1 (configuration not stated)
10.17%

Give the value of INHIBITION reported for the following: "Cc1ccc(S(=O)(=O)Nc2c(C)nn(C)c2C)cc1C"
45.7%

Give the value of INHIBITION reported for the following: O=C(C1CCC1)N1CCCC(c2cccc(-n3ccnc3)n2)C1 (configuration not stated)
29.3%
